experiment: Selectivity ratio of cytotoxicity against human WI38 cells to MIC for methicillin sensitive Staphylococcus aureus NCTC 6571; assay type: toxicity, cell-based
valueKind: selectivity ratio
The reply should be a number, written without any unit.

> print(dat)
                                        smi  observedvalue
1  CCN(CC)C(=O)c1cc2cc(NC(=O)c3cc(NC(=O)CCCOc4cc5c(cc4OC)C(=O)N4CCC[C@H]4C=N5)cn3C)ccc2s1            100
2  CCN(CC)C(=O)c1cc(-c2ccc(NC(=O)c3cc(NC(=O)CCCOc4cc5c(cc4OC)C(=O)N4CCC[C@H]4C=N5)cn3C)cc2)cn1C            100

(Q) Return reported selectivity ratio; argument: COc1cc2c(cc1OCCCC(=O)Nc1cc(C(=O)Nc3ccc4sc(C(=O)N(C)C)cc4c3)n(C)c1)N=C[C@@H]1CCCN1C2=O
(A) 100

---

assay: Selectivity ratio of cytotoxicity against human WI38 cells to MIC for Pseudomonas aeruginosa PAO1; type: toxicity, cell-based
valueKind: selectivity ratio
Kindly provide the number alone.

Sample records with selectivity ratio:
> print(dat)
                                        smi  observedvalue
1  CCN(CC)C(=O)c1cc(-c2ccc(NC(=O)c3cc(NC(=O)CCCOc4cc5c(cc4OC)C(=O)N4CCC[C@H]4C=N5)cn3C)cc2)cn1C             10
2  COc1cc2c(cc1OCCCC(=O)Nc1cc(C(=O)Nc3ccc4oc(C(=O)N5CCSCC5)cc4c3)n(C)c1)N=C[C@@H]1CCCN1C2=O             10

Let us examine a further case.
(Q) Need selectivity ratio, item COc1cc2c(cc1OCCCC(=O)Nc1cc(C(=O)Nc3ccc4sc(C(=O)N5CCOCC5)cc4c3)n(C)c1)N=C[C@@H]1CCCN1C2=O
(A) 10

---

tested on: Acinetobacter baumannii; assay: Antimicrobial activity against multidrug-resistant Acinetobacter baumannii AYE by microdilution broth method; type: functional
valueKind: MIC (µg/mL)
Give your result in µg/mL as a bare value.

> print(dat)
                                        smi  observedvalue
1  COc1cc2c(cc1OCCCC(=O)Nc1cc(C(=O)Nc3ccc(-c4cc(C(=O)N5CCOCC5)n(C)c4)cc3)n(C)c1)N=C[C@@H]1CCCN1C2=O              2

Query molecule follows.
(Q) Look up MIC: COc1cc2c(cc1OCCCC(=O)Nc1cc(C(=O)Nc3ccc(-c4cc(C(=O)N5CCCCC5)n(C)c4)cc3)n(C)c1)N=C[C@@H]1CCCN1C2=O
(A) 2

---

assay: Selectivity ratio of cytotoxicity against human WI38 cells to MIC for Klebsiella pneumoniae M6; format: toxicity, cell-based
valueKind: selectivity ratio

Worked set:
> print(dat)
                                        smi  observedvalue
1  COc1cc2c(cc1OCCCC(=O)Nc1cc(C(=O)Nc3ccc(-c4cc(C(=O)N5CCOCC5)n(C)c4)cc3)n(C)c1)N=C[C@@H]1CCCN1C2=O             10
2  CCN(CC)C(=O)c1cc2cc(NC(=O)c3cc(NC(=O)CCCOc4cc5c(cc4OC)C(=O)N4CCC[C@H]4C=N5)cn3C)ccc2s1             10

(Q) Entry COc1cc2c(cc1OCCCC(=O)Nc1cc(C(=O)Nc3ccc4sc(C(=O)N5CCSCC5)cc4c3)n(C)c1)N=C[C@@H]1CCCN1C2=O has what selectivity ratio?
(A) 10
